- Experiment description: Octan-1-ol/PBS partition coefficient
- Format: physicochemical
- Conditions used: 200 μM, room temperature, 1 h, means±SEM of three
Value kind: Octanol:PBS partition coefficient

Molecule	Measured value
Cc1c(C)c2c(c(C)c1O)CC[C@@](C)(CCC[C@H](C)CCC[C@H](C)CCCC(C)C)O2 [α-Tocopherol, α-tocopherol]	27.4

A = Cc1c(C)c2c(c(C)c1O)CCC(C)(CCBr)O2 (stereo not shown) [Bromo Vit E]
B = Cc1c(C)c2c(c(C)c1O)CCC(C)(CC[P+](c1ccccc1)(c1ccccc1)c1ccccc1)O2 (stereo not shown) [compound 1]
C = BrCCCC[P+](c1ccccc1)(c1ccccc1)c1ccccc1.[Br-] [BrBTP, bromobutyltriphenylphosphonium bromide]
Your job: order these 3 records by Octanol:PBS partition coefficient, ascending. Write the labels out in the order the request specifies.
C, B, A

Where do the numbers come from? From patent US7232809B2.
